System: CAKI-1 renal
EXPERIMENT SUMMARY: NCI tumour cell line growth inhibition, 48 h
Recorded TGI by entry

# MOLECULE, TGI
measured = [
    ("Cc1cn(C2CC(N(C)C)C(CO)O2)c(=O)[nH]c1=O (stereo unspecified)", "> 100 µM"),
    ("COc1ccc2[nH]c3c(c2c1)[C@H](C)C[C@@H]1C(=O)N(c2ccccc2)C(=O)[C@H]31", "> 100 µM"),
]

Entry under test: O=C(N[C@@H](C[Se][Se]C[C@H](NC(=O)c1ccc(Br)cc1F)C(=O)O)C(=O)O)c1ccc(Br)cc1F . Its TGI was > 100 µM

Entry under test: COc1c(O)c2c(=O)cc(OC)c3c4c(OC)cc(=O)c5c(O)c(OC)c6c(c(c1C(C(C)O)C6C(C)O)c23)c54 (stereo unspecified) . Its TGI was 0.842 µM

Entry under test: O=C1OCC2=C1C(c1ccccc1)c1cc3c(cc1N2CCO)OCO3 (stereo unspecified) . Its TGI was > 50 µM

Entry under test: COc1cc(/C=C/C=C2\CC/C(=C\C=C\c3ccc(O)c(OC)c3)C2=O)ccc1O . Its TGI was > 100 µM

Entry under test: CC(=O)OCC1OC(N2C(=O)C(=O)c3ccccc32)C(OC(C)=O)C(OC(C)=O)C1OC(C)=O (stereo unspecified) . Its TGI was > 100 µM

Entry under test: COc1nc(C#CC(C)(C)C)nc(OC)n1 . Its TGI was 51.9 µM

Entry under test: CCOC(=O)c1nc2cc(C(F)(F)F)ccc2nc1Nc1ccc(C(=O)NC(C(=O)OCC)C(=O)OCC)cc1 . Its TGI was 37 µM

Entry under test: Cc1c(C(=O)O)oc2ccc([N+](=O)[O-])cc12 . Its TGI was > 100 µM

Entry under test: C[N+](C)(C)CC1CCCCC1O (stereo unspecified) . Its TGI was > 100 µM

Entry under test: COc1ccc(C(=O)NCCN(C)C)c2nc3ccccc3nc12 . Its TGI was > 36.2 µM

Entry under test: FC(F)(F)c1cc(C2SCc3nc4ccccc4n32)cc(C(F)(F)F)c1 (stereo unspecified) . Its TGI was > 100 µM

Entry under test: CC(=O)OC(Cn1cncn1)(Cn1cncn1)c1ccc(Cl)cc1Cl . Its TGI was > 100 µM

---

Test system: A549 NSCLC
EXPERIMENT SUMMARY: NCI tumour cell line growth inhibition, 48 h
Recorded TGI by entry

# MOLECULE, TGI
records = [
    ("O=[N+]([O-])c1ccc(-c2ccc(-c3csc(Nc4ccccc4)n3)o2)cc1", "> 100 µM"),
    ("O=C(C(Cl)=C(N1CCOCC1)N1CCOCC1)C(Cl)Cl", "> 100 µM"),
    ("C(=N\\Nc1nnn(Cc2ccccc2)n1)/c1ccccc1", "> 100 µM"),
    ("COc1ccc2c(c1)/C(=C/c1cc(OC)c(OC)c(OC)c1)C(=O)N2", "> 100 µM"),
]

Tested on A549 NSCLC: CN(C)CCC(=O)/C=C\c1ccccc1 . Observed TGI: 48.3 µM

Tested on A549 NSCLC: C/C(=N/NC(=O)C[N+](C)(C)C)C(CN(C)C)C(=O)Nc1ccccc1 (stereo unspecified) . Observed TGI: > 100 µM

Tested on A549 NSCLC: COc1ccc(/C(=N\NC(=S)NN)C(c2ccc(OC)cc2)C2C(=O)Oc3ccccc32)cc1 (stereo unspecified) . Observed TGI: > 100 µM

---

System: OVCAR-3 ovarian
EXPERIMENT SUMMARY: NCI tumour cell line growth inhibition, 48 h
READOUT TYPE: TGI

# COMPOUND, TGI
data = [
    ("COc1cc(NC(C)=O)ccc1C(=O)NN1C(=O)/C(=C/c2ccco2)N=C1c1ccccc1", "> 50 µM"),
]

Entry under test: COc1ccc(CN2C3CC2CN(c2ccc(-c4cc(OCC(C)(C)O)cn5ncc(C#N)c45)cn2)C3)cn1 . Its TGI was > 100 µM

Entry under test: COc1ccc(COCC[C@H](C)OC2OC(CO[Si](C)(C)C(C)(C)C)C(OC(=O)CCCN=[N+]=[N-])C(OC(=O)CCCN=[N+]=[N-])C2OC(=O)CCCN=[N+]=[N-])cc1 (some centres undefined) . Its TGI was > 100 µM

Entry under test: CCON1CC(C(=O)OC)=C(O)C1=O . Its TGI was > 100 µM

Entry under test: C[C@]12CC[C@@H]3c4cc(I)c(O)cc4CC[C@H]3[C@@H]1CC[C@@H]2O . Its TGI was 11.9 µM

Entry under test: CC(=O)OC1C(COC(=O)c2ccccc2)OC(Nc2ncc(-c3ccc(Br)cc3)s2)C(OC(=O)c2ccccc2)C1OC(=O)c1ccccc1 (centres undefined) . Its TGI was > 100 µM

Entry under test: Cc1ccc(-c2nc3nc(-c4ccc(F)cc4)nc(N4CCCNCC4)c3o2)cc1 . Its TGI was 2.96 µM

Entry under test: C(=N\Nc1nnn(Cc2ccccc2)n1)/c1ccccc1 . Its TGI was 7.95 µM

Entry under test: CC(=O)N1CCC2(c3ccccc3N(C(C)=O)C2c2ccc(O)cc2)C1C(=O)O (centres undefined) . Its TGI was > 100 µM

Entry under test: COc1cc2c(cc1OC)C(C(=O)c1cccc(OC)c1OC)C(=O)N(C)CC2 (centres undefined) . Its TGI was > 100 µM

Entry under test: COc1ccc2c(c1)/C(=C/c1cc(OC)c(OC)c(OC)c1)C(=O)N2 . Its TGI was 0.0463 µM

Entry under test: CNC(=O)c1nn(C)c2c1C(C)(C)Cc1cnc(Nc3ccc(N4CCN(C)CC4)cc3)nc1-2 . Its TGI was > 10 µM

Entry under test: COc1ccc(CN2CCC/C=C/CC(Cl)(Cl)C2=O)cc1 . Its TGI was > 100 µM

Entry under test: CCOP(=O)(/C=C\n1ccc(N)nc1=O)OCC . Its TGI was > 100 µM

Entry under test: O=C(C(Cl)=C(N1CCOCC1)N1CCOCC1)C(Cl)Cl . Its TGI was > 100 µM

---

Test system: SR leukemia
EXPERIMENT SUMMARY: NCI tumour cell line growth inhibition, 48 h
Recorded TGI by entry

# COMPOUND, TEST SYSTEM, TGI
records = [
    ("N#Cc1nc(C2CCC2)oc1N", "SR leukemia", "> 100 µM"),
    ("CC(=O)OC1C(COC(=O)c2ccccc2)OC(Nc2ncc(-c3ccc(Br)cc3)s2)C(OC(=O)c2ccccc2)C1OC(=O)c1ccccc1 (stereo not drawn)", "SR leukemia", "> 100 µM"),
]

Consider now this further compound.
Entry under test: COC(=O)C1(O)CC(=O)CCC1c1ccc(OC)cc1 (stereo not drawn) . Its TGI was > 100 µM

---

System: OVCAR-4 ovarian
EXPERIMENT SUMMARY: NCI tumour cell line growth inhibition, 48 h
Recorded TGI by entry

# COMPOUND, TGI
data = [
    ("O=c1oc2ccccc2[n+]([O-])c1-c1ccccc1", "> 100 µM"),
    ("COc1cc2c(cc1OC)C(C(=O)c1cccc(OC)c1OC)C(=O)N(C)CC2 (configuration not stated)", "> 100 µM"),
    ("COc1cc(NC(C)=O)ccc1C(=O)NN1C(=O)/C(=C/c2ccco2)N=C1c1ccccc1", "> 50 µM"),
]

Consider now this further compound.
Entry under test: CCON1CC(C(=O)OC)=C(O)C1=O . Its TGI was > 100 µM

---

Test system: SF-268 CNS
EXPERIMENT SUMMARY: NCI tumour cell line growth inhibition, 48 h
Recorded TGI by entry

Below: 3 compounds and their reported TGI.
# COMPOUND, TGI
rows = [
    ("CCC(C(=O)C(=O)OC)P1(=O)OC(C)(C)CN1C(C)(C)C (centres undefined)", "> 100 µM"),
    ("Cc1c2ccccc2cc2ccc3oc([N+](=O)[O-])cc3c12", "> 100 µM"),
    ("CSc1n[nH]c(N)c1C(=O)Nc1ccccc1", "> 100 µM"),
]

Consider now this further compound.
Entry under test: COC1CC(OC2CCC3(C)C(=CCC4C3C(OC(C)=O)C(OC(=O)CC(C)C)C3(C)C(C(C)=O)CCC43O)C2)OC(C)C1OC1CC(OC)C(OC2CC(OC)C(OC3OC(C)C(OC4OC(CO)C(O)C(O)C4O)C(OC)C3O)C(C)O2)C(C)O1 (centres undefined) . Its TGI was > 75 µM

---

System: UACC-62 melanoma
EXPERIMENT SUMMARY: NCI tumour cell line growth inhibition, 48 h
Recorded TGI by entry

Below: 10 molecules and their reported TGI.
# MOLECULE, TGI
data = [
    ("CCOC(=O)C(NC(=O)c1nc[nH]c1[N+](=O)[O-])C(C)C (stereo not drawn)", "> 100 µM"),
    ("CC(C)OC(=O)OCSc1ccccc1N=Cc1cccc([N+](=O)[O-])c1", "> 10 µM"),
    ("COc1ccc(C2c3cc4c(cc3OC(N3CCOCC3)C2C)OCO4)c(OC)c1OC (stereo not drawn)", "69.7 µM"),
    ("c1ccc(N2N=C(c3ccco3)CC2c2ccco2)cc1 (stereo not drawn)", "> 100 µM"),
    ("CC1(C)[C@H]2CC[C@@]13C(=O)N1C(=O)O[C@@H]([C@H]1Cl)C(Cl)(COCc1ccccc1)C(=O)OCCO[C@H]3C2 (stereo partly drawn)", "> 100 µM"),
    ("C[n+]1c(-c2ccc(/C=C/C=N\\NC(=O)c3ccc(C(=O)N/N=C\\C=C\\c4ccc(-c5cn6ccccc6[n+]5C)cc4)cc3)cc2)cn2ccccc21", "> 100 µM"),
    ("Cc1ccc(/C=C2\\Cc3c(C)cc(C)cc3C2=O)c(C(=O)O)c1", "> 100 µM"),
    ("Cc1c2ccccc2cc2ccc3oc([N+](=O)[O-])cc3c12", "> 100 µM"),
    ("O=C(N[C@@H](C[Se][Se]C[C@H](NC(=O)c1ccc(Br)cc1F)C(=O)O)C(=O)O)c1ccc(Br)cc1F", "> 100 µM"),
    ("COc1ccc2c(c1)/C(=C/c1cc(OC)c(OC)c(OC)c1)C(=O)N2", "> 100 µM"),
]

Tested on UACC-62 melanoma: O=C(O)c1ccccc1/C=N/N=C1c2ccccc2-c2ccccc21 . Observed TGI: > 100 µM

Tested on UACC-62 melanoma: COCCOCCOC1=CC(=O)c2c(O)ccc(O)c2C1=O . Observed TGI: 3.34 µM

Tested on UACC-62 melanoma: Cc1cc(N(CCC#N)CCC#N)ccc1/C=C(\NC(=O)/C=C/c1ccccc1)C(=O)NN . Observed TGI: > 100 µM
